# MEASURED ON: androgen receptor (Homo sapiens, UniProt P10275)
# MEASUREMENT DESCRIPTION: human AR antagonist assay (Indigo Biosciences)
# Assay type: cell-based
# Parameters: purchased Indigo Biosciences
# EXPERIMENTAL CONDITIONS: antagonist mode, Table 2 / FIG. 2
# Source text: The activity of a compound can be determined using various known methods. For example, AR assays can be used. Such AR assays include binding assays using, for example, cells transfected with the human androgen receptor. […] The principle application of such an assay product is to quantify functional activities, either agonist or antagonist, that a compound may exert against the human androgen receptor. […]
Assignment: determine reported pIC50 for the given molecules.
Remember the convention: pIC50 equals -log10 of concentration in molar.

Would you kindly share the measured pIC50 for `CC(=O)O[C@@H]1CC2=C3CCC4=CC(=O)CC[C@@H]4[C@@]3(C)CC[C@]2(C)C1` ?
6.38

If you can, please state the reported pIC50 value of `C[C@]12CC[C@@]3(C)C(=C1C[C@@H](O)C2)CCC1=CC(=O)CC[C@@H]13` .
6.18

If you can, please state the reported pIC50 value of `C[C@]12CC[C@@]3(C)C(=C1C[C@H](O)C2)CCC1=CC(=O)CC[C@@H]13` .
5.91

---

# MEASURED ON: UniProtKB P10275
# MEASUREMENT DESCRIPTION: human AR antagonist assay (Indigo Biosciences)
# Format: cell-based
# Parameters: purchased Indigo Biosciences
# EXPERIMENTAL CONDITIONS: Table A
pIC50: −log10 of the molar value.
t means recorded pIC50 is 6 or above; f means it is below 6.

Answer whether pIC50 of `C[C@@]12CC[C@]3(C)C(=C1C[C@H](O)C2)CCC1=CC(=O)CC[C@H]13` is greater than or equal to 6.
f

Determine whether this compound has pIC50 no lower than 6: `CC(=O)O[C@@H]1CC2=C3CCC4=CC(=O)CC[C@@H]4[C@@]3(C)CC[C@]2(C)C1`
t

Is it the case that `C[C@]12CC[C@@]3(C)C(=C1C[C@@H](O)C2)CCC1=C[C@@H](O)CC[C@@H]13` has pIC50 reaching or exceeding 6?
f

---

# MEASURED ON: androgen receptor (Homo sapiens)
# Sequence (P10275 1-920): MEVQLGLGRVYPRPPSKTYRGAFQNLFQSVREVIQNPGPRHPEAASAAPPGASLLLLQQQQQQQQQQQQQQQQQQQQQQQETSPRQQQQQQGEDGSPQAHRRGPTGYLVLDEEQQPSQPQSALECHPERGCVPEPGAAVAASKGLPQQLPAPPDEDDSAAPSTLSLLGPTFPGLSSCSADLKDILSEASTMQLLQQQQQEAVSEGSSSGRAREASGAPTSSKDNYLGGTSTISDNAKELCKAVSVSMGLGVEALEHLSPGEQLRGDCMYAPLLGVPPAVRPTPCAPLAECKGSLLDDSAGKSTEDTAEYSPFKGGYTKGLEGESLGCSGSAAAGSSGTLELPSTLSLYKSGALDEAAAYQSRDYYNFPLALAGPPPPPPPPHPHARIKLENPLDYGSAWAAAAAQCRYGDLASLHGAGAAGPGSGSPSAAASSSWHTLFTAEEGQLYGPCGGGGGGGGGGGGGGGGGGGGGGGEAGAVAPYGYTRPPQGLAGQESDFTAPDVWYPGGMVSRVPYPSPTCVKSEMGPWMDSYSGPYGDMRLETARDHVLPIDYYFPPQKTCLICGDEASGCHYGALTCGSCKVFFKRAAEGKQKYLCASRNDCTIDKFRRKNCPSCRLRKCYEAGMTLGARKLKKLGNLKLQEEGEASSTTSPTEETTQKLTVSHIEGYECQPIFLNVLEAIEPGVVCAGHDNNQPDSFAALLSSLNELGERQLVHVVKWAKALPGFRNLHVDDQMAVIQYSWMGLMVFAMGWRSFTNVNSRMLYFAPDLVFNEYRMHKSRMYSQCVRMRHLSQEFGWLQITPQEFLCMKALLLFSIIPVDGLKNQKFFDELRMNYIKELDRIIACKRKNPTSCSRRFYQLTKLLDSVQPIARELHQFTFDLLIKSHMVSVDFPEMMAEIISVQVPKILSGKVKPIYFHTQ
MEASURED PROPERTY: pKi
// scale note: pKi = -log10(conc_M); give the bare number

Lab note: need pKi with androgen receptor (Homo sapiens) for entry C[C@]12CC[C@@]3(C)C(=C1C[C@@H](O)C2)CCC1=CC(=O)CC[C@@H]13 [Compound 102] , please look it up.
6.04

I'm curious: which pKi was measured for C[C@]12CC[C@@]3(C)C(=C1C[C@H](O)C2)CCC1=CC(=O)CC[C@@H]13 [Compound 103] tested on androgen receptor (Homo sapiens)?
5.46

Request - read-out pKi | tested on androgen receptor (Homo sapiens) | compound CC(=O)O[C@@H]1CC2=C3CCC4=CC(=O)CC[C@@H]4[C@@]3(C)CC[C@]2(C)C1 [Compound 101]
5.13
